- target or system: Monoglyceride lipase (Homo sapiens, UniProt Q99685)
- Sequence (Q99685 whole entry): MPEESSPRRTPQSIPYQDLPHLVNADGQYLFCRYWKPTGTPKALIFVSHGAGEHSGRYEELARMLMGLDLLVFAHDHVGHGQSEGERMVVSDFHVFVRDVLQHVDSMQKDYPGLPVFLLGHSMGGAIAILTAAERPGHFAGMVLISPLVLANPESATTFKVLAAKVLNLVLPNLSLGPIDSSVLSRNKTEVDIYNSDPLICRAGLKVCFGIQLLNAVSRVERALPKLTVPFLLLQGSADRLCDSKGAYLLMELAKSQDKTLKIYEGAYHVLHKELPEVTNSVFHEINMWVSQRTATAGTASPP
- experiment summary: Inhibition of Homo sapiens (human) recombinant monoacylglycerol lipase assessed as inhibition of [3H]-2-oleolylglycerol hydrolysis after 10 min by liquid scintillation counting
Would you kindly list IC50 for each of these compounds?

IC50 in this record for COC(=O)c1ccc(C(=S)N2CCOCC2)cc1 : 30.9 µM

IC50 in this record for O=C(c1ccc(-c2ccccc2)cc1)N1CCOCC1 : > 1000 µM

IC50 in this record for Cc1ccc(CC(=S)N2CCOCC2)cc1 : 24 µM

IC50 in this record for S=C(NCCc1ccccc1)c1ccccc1 [N-PHENETHYLBENZOTHIOAMIDE] : > 1000 µM

IC50 in this record for S=C(NCCc1ccccc1)c1ccc(Cl)cc1Cl : 79.4 µM
